Cited source for all entries: PubChem BioAssay AID2685

EXPERIMENT_NOTES: qHTS Assay for Lipid Storage Modulators in Drosophila S3 Cells;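 further: cells counted by Cell Tracker Red CMTPX staining in the red channel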
EXPERIMENTAL_PARAMETERS: BODIPY lipid droplet fluorescence, 18-24 h, cells fed with added oleic acid; measured here: cell count max response
Out of some 320,000 compounds screened, about 2,100 (0.66%) were called active. Inconclusive results (about 53%) are left out. What follows is part of a selection rich in actives, with near analogues and random picks from the rest.
MEASUREMENT_NAME: cell number change (%)

O=C1CCCC(=O)N1c1ccc(N2CCN(c3ccccc3)CC2)c([N+](=O)[O-])c1 ... -1.18
Cc1ccc(CNC(=O)c2cc(C3CC3)nc3c2cnn3C(C)C)cc1 ... -11.5
CN1CCN(C(=O)/C(=C\c2ccccc2)c2ccccc2)CC1 ... -17.9
CCC(CC)C(=O)N(c1ccc(F)cc1)C1C=CS(=O)(=O)C1 (stereo not given) ... -1.72
Cc1cccc(N2CCN(c3ccc(N4C(=O)CCCC4=O)cc3[N+](=O)[O-])CC2)c1C ... 4.71
CCOc1ccc(C(=O)CCC(=O)N(CC)CC(=O)NCc2cccs2)cc1 ... 12.9
Cc1occc1C(=O)N/N=C/c1sc(N2CCOCC2)nc1-c1ccccc1 ... -21.3
COCCn1c(SCC(=O)Nc2ccc(F)cc2)nc2ccccc2c1=O ... 3.47
O=C(N/N=C/c1sc(N2CCOCC2)nc1-c1ccccc1)c1cccc(S(=O)(=O)N2CCCC2)c1 ... 111
COc1ccc(CNC(=O)c2cc(C3CC3)nc3c2cnn3C(C)C)cc1OC ... 1.25

---

EXPERIMENT_NOTES: qHTS Assay for Lipid Storage Modulators in Drosophila S3 Cells;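 further: cells counted by Cell Tracker Red CMTPX staining in the red channel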
EXPERIMENTAL_PARAMETERS: BODIPY lipid droplet fluorescence, 18-24 h, cells fed with added oleic acid; measured here: cell count max response
Screen size: about 320,000 compounds; about 2,100 (0.66%) were called active. About 53% were inconclusive and are not listed. The full list was thinned out, with actives kept by preference.
MEASUREMENT_NAME: cell number change (%)

COc1ccccc1NC(=O)N1CCCC(CNC(=O)c2ccccc2Cl)C1 (stereo not given) ... 21.5
O=C(Nc1nc2ccc([N+](=O)[O-])cc2s1)C1CCCO1 (stereo not given) ... -16.8
CC(=O)NCCn1c(SCC#N)nc2ccccc2c1=O ... 8.06
Cc1ccc(-c2csc3ncnc(SCC(=O)c4ccc5c(c4)OCCO5)c23)cc1 ... -23.9
COc1ccccc1/C=C/c1onc(C)c1S(=O)(=O)N1CCC(C(=O)NC2CCCCCC2)CC1 ... -0.659
Cn1cc(CN2CCCC(CNC(=O)c3ccc4c(c3)OCO4)C2)c2ccccc21 (stereo not given) ... -1.43
CN1c2ccsc2C(O)=C(C(=S)Nc2ccccc2)S1(=O)=O ... 15.4
CCc1ccc(S(=O)(=O)N(C(=O)c2ccncc2)c2ccc(OC(=O)c3ccncc3)cc2)cc1 ... -8
Cc1cccc(NC(=O)N2CCCC(CNC(=O)c3ccccc3Cl)C2)c1C (stereo not given) ... -15
COc1ccc(S(=O)(=O)N(C(=O)c2ccncc2)c2ccc(OC(=O)c3ccncc3)cc2)cc1 ... -3.33
O=C(CSc1ncnc2scc(-c3ccc(F)cc3)c12)c1ccc2c(c1)OCCO2 ... 7.81
COc1ccc(N2C(=S)N=C(Nc3cccc(C)c3)C23CCCCC3)cc1 ... -6.29
C[C@H](NC(=O)OCc1ccccc1)c1nnc([C@H](C)NC(=O)OCc2ccccc2)o1 ... 2.65
O=C(c1ccccn1)N(CC1CCCO1)C1(C(=O)NC2CCCCC2)CCCCC1 (stereo not given) ... -0.121
COCC1CCN(C(=O)c2ccc(OC)c(OC3CCN(C(C)C)CC3)c2)CC1 ... 13.3
Cc1ccc(-c2csc3ncnc(SCC(=O)NCc4ccc5c(c4)OCO5)c23)cc1 ... -1.52
CCCSc1ccc([C@@H]2[C@H]3C(=O)N(CC)C(=O)[C@H]3[C@]3(C(=O)OC)CCCN23)cc1OC ... 11.7
O=C(CN(C(=O)c1ccc(Cl)cc1)N1C(=O)C2C3C=CC(C3)C2C1=O)c1cccs1 (stereo not given) ... -8.51
CC1(C)CC(=O)C2=C(C1)Oc1ncn(Cc3ccco3)c(=N)c1C2c1ccccc1 (stereo not given) ... -0.936
CCOC(=O)c1ccc(N(CC(=O)NC2CCCCC2)C(=O)CNC(=O)c2ccco2)cc1 ... 11.2
